# System: Staphylococcus sp.
# experiment: in vitro antibacterial evaluation, MIC by broth dilution
# Format: cell-based
# stated conditions: strain GC 4543; broth dilution, 18 hours at 35° C.
List of MIC Staphylococcus aureus-SMITH (GC 4543) values.
Use µg/mL as the unit, but write only the number.

Examples from the recorded data:
CC(c1ccccc1)C1NC(=O)CNC(=O)C(CO)NC(=O)C(C(O)C2CNC(=N)N2C2OC(CO)C(O)C(O)C2O)NC(=O)C(C(O)C2CNC(=N)N2)NC(=O)C(Cc2ccc3oc(SCC(=O)c4ccccc4)nc3c2)NC1=O (centres unmarked) [Example 48]	16
CC(c1ccccc1)C1NC(=O)CNC(=O)C(CO)NC(=O)C(C(O)C2CNC(=N)N2C2OC(CO)C(O)C(O)C2O)NC(=O)C(C(O)C2CNC(=N)N2)NC(=O)C(Cc2ccc(OC3OC(CO)C(OC4OC5COC6(CCC(C(C)(C)C)CC6)OC5C(O)C4O)C(O)C3O)cc2)NC1=O (centres unmarked) [Example 208]	4
COc1ccc(Oc2cccc(C3OCC4OC(OC5C(CO)OC(Oc6ccc(CC7NC(=O)C(C(C)c8ccccc8)NC(=O)CNC(=O)C(CO)NC(=O)C(C(O)C8CNC(=N)N8C8OC(CO)C(O)C(O)C8O)NC(=O)C(C(O)C8CNC(=N)N8)NC7=O)cc6)C(O)C5O)C(O)C(O)C4O3)c2)cc1 (centres unmarked) [Example 180]	2

We next turn to a different molecule, shown below.
So, CCCCCCCN1CC(C(O)C2NC(=O)C(C(O)C3CNC(=N)N3)NC(=O)C(Cc3ccc(OC4OC(CO)C(OC5OC6COC7(OC6C(O)C5O)C5CC6CC(C5)CC7C6)C(O)C4O)cc3)NC(=O)C(C(C)c3ccccc3)NC(=O)CNC(=O)C(CO)NC2=O)N(C2OC(CO)C(O)C(O)C2O)C1=N (centres unmarked) [Example 83] ? Its MIC Staphylococcus aureus-SMITH (GC 4543) was 2
